- target.system: heteromeric KV7.2/KV7.3 channels (KCNQ2, KCNQ3) (Homo sapiens, UniProt O43525+O43526)
- protocol.details: Automated patch-clamp (Sophion Qube 384) potency assay against KV7.2/KV7.3 channels
- test.parameters: CHO-K1/Kv7.2/Kv7.3 cells; EC50 from concentration-response of shift in Vhalf, 10 concentrations up to 30 μM; read-out: Kv7.2/7.3 EC50
- From the text: Assessment of In Vitro Potency Against KV7.2/KV7.3 Channels […] On the day of the experiment, cells were resuspended in serum free media, counted and diluted to a final concentration of 3.5×10^6 cells per ml of media. […] The lower the EC50 value, the higher the potency of the analyzed compound. […] In Table 3, ND means that selectivity was not determined.
Could you please report measured EC50 for the items listed next?
One number for each entry, in nM.

// known answers, use as guide
{"columns": ["compound", "target.system", "u", "observed.measurement"],
 "data": [
  ["C[C@@H](Oc1cc(CNC(=O)N[C@@H]2COc3ccc(F)cc32)ncn1)C(F)(F)F", "heteromeric KV7.2/KV7.3 channels (KCNQ2, KCNQ3) (Homo sapiens, UniProt O43525+O43526)", "nM", 8150],
  ["COc1cccc(N2C[C@H](NC(=O)NCc3ccnc(OCC(F)(F)F)c3)C(F)(F)C2)c1", "heteromeric KV7.2/KV7.3 channels (KCNQ2, KCNQ3) (Homo sapiens, UniProt O43525+O43526)", "nM", 3320],
  ["O=C(NCc1ccnc(OCC(F)(F)F)c1)N[C@@H]1COC2(CC2)C1", "heteromeric KV7.2/KV7.3 channels (KCNQ2, KCNQ3) (Homo sapiens, UniProt O43525+O43526)", "nM", 6220]
]}

Please state, for each entry, its recorded EC50.
1. COc1ccc2c(c1)CCC2NC(=O)NCc1ccnc(OCC(F)(F)F)c1 (stereo not shown)
2. O=C(NCCC1(C(F)(F)F)CC1)NCc1ccnc(C(F)(F)F)c1

Key:
1. 2710
2. 4280

Please state, for each entry, its recorded EC50.
1. O=C(NCCC1(C(F)(F)F)CC1)N1CCCC1c1ccnc(OCC(F)(F)F)c1 (stereo not shown)
2. C[C@@H](Oc1nccc(CNC(=O)NCCC2(C(F)(F)F)CC2)n1)C(F)(F)F

Key:
2290
4460

Please state, for each entry, its recorded EC50.
1. O=C(NCc1ccnc(OCC(F)(F)F)c1)NCc1cc(F)ccc1Cl
2. COc1ccc([C@@H](C)NC(=O)NCc2ccnc(OCC(F)(F)F)c2)cc1
3. Cc1cccc2c1[C@@H](NC(=O)NCc1ccnc(OCC(F)(F)F)c1)CC2
4. O=C(NCc1ccnc(OCC(F)(F)F)c1)N[C@H](C1CC1)C(F)(F)F
5. C[C@@H](NC(=O)NCc1ccnc(OCC(F)(F)F)c1)c1cccc2c1OC(F)(F)O2
6. O=C(NCCC1(C(F)(F)F)CC1)NCc1ccnc(OCc2ncccc2F)c1
7. O=C(NCc1ccnc(OCC(F)(F)F)c1)NCC12CC(C(F)(F)F)(C1)C2
8. O=C(NCc1ccnc(OCC(F)(F)F)c1)N[C@H]1CCOc2cccc(F)c21

Key:
1. 206
2. 4540
3. 1400
4. 680
5. 1860
6. 7610
7. 970
8. 2720

Please state, for each entry, its recorded EC50.
1. C[C@H](NC(=O)N[C@@H]1CCc2ccc(F)cc21)c1ccnc(OCC(F)(F)F)n1
2. O=C(NCCC1(C(F)(F)F)CC1)NCc1ccnc(C(F)F)c1
3. Cc1ccc2c(c1)[C@@H](NC(=O)NCc1ccnc(OCC(F)(F)F)c1)CC2
4. O=C(NCc1ccnc(OC(F)F)c1)N[C@@H]1CCc2ccc(F)cc21
5. O=C(NCc1ccnc(OCC(F)F)c1)N[C@@H]1CCc2ccc(F)cc21
6. O=C(N[C@@H](CO)c1ccnc(OCC(F)(F)F)c1)N[C@@H]1CCc2ccc(F)cc21
7. O=C(NCCC1(C(F)(F)F)CC1)NCc1cc(OCC(F)(F)F)nc(C(F)(F)F)c1

Key:
1920
4790
1550
1600
2440
2640
2150
